- TARGET OR TEST SYSTEM: Glucocorticoid receptor (Homo sapiens, UniProt P04150)
- ASSAY NOTES: Transcriptional activation in CV-1 cells expressing glucocorticoid receptor
- Assay type: functional, cell-based
Answer each item with its documented log10(IC50).
For clarity, the numbers are log10 values of IC50 expressed in nM.

Take a look at these entries with their results.
COc1cccc2c1-c1ccc3c(c1C(c1cccc(OCSC)c1)O2)C(C)=CC(C)(C)N3 (stereo not drawn): 0.95
COCOc1cccc(C2Oc3cccc(OC)c3-c3ccc4c(c32)C(C)=CC(C)(C)N4)c1 (stereo not drawn): 1.45
COc1cccc2c1-c1ccc3c(c1C(c1cc(C)cc(C)c1)O2)C(C)=CC(C)(C)N3 (stereo not drawn): 1.38
COc1cccc2c1-c1ccc3c(c1C(c1ccccc1)O2)C(C)=CC(C)(C)N3 (stereo in doubt; 10): 2.48

Each compound below has a recorded value; state its log10(IC50).
1. COc1cccc2c1-c1ccc3c(c1C(c1cc(C)cc(Br)c1)O2)C(C)=CC(C)(C)N3 (stereo not drawn)
2. COc1cccc2c1-c1ccc3c(c1C(c1cccc(C(F)(F)F)c1)O2)C(C)=CC(C)(C)N3 (stereo not drawn)
3. COc1cccc2c1-c1ccc3c(c1C(c1cc(F)cc(F)c1)O2)C(C)=CC(C)(C)N3 (stereo not drawn)
4. COc1cccc2c1-c1ccc3c(c1C(c1cccc(OC(=O)N(C)C)c1)O2)C(C)=CC(C)(C)N3 (stereo not drawn)

Result:
1.46
1.64
1.00
1.08

###

- TARGET OR TEST SYSTEM: Glucocorticoid receptor (Homo sapiens)
- Sequence (P04150 whole entry): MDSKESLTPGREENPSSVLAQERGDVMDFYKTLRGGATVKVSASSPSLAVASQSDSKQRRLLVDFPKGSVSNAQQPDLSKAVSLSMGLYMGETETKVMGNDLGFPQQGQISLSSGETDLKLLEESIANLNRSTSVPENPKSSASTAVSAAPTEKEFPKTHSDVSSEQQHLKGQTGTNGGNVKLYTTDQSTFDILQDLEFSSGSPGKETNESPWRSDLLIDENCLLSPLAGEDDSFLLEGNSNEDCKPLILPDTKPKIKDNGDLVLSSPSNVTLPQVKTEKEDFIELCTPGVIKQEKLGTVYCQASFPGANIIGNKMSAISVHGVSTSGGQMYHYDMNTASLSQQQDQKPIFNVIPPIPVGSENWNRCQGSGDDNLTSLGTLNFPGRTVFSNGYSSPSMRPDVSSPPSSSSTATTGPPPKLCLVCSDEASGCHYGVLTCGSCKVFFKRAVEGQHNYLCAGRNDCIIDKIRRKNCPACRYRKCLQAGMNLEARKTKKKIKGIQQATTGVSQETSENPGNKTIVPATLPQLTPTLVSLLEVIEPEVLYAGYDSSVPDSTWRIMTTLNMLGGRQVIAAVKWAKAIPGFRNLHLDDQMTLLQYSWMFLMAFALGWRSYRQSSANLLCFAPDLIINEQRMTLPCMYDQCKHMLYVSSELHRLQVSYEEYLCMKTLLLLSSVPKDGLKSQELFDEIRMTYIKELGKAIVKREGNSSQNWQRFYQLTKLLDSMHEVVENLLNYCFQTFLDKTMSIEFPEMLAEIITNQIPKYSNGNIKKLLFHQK
- ASSAY NOTES: Displacement of [3H]- Dexamethasone from glucocorticoid receptor
ENDPOINT: Ki (nM)
Answers are plain numbers, in nM.

Task: Recall the recorded Ki for COc1cccc2c1-c1ccc3c(c1C(c1cccc(OC(=O)N(C)C)c1)O2)C(C)=CC(C)(C)N3 (stereo unspecified) with Glucocorticoid receptor (Homo sapiens) and state it.
Result: 2.4

###

- TARGET OR TEST SYSTEM: Mineralocorticoid receptor (Homo sapiens, UniProt P08235)
- Sequence (P08235 whole entry): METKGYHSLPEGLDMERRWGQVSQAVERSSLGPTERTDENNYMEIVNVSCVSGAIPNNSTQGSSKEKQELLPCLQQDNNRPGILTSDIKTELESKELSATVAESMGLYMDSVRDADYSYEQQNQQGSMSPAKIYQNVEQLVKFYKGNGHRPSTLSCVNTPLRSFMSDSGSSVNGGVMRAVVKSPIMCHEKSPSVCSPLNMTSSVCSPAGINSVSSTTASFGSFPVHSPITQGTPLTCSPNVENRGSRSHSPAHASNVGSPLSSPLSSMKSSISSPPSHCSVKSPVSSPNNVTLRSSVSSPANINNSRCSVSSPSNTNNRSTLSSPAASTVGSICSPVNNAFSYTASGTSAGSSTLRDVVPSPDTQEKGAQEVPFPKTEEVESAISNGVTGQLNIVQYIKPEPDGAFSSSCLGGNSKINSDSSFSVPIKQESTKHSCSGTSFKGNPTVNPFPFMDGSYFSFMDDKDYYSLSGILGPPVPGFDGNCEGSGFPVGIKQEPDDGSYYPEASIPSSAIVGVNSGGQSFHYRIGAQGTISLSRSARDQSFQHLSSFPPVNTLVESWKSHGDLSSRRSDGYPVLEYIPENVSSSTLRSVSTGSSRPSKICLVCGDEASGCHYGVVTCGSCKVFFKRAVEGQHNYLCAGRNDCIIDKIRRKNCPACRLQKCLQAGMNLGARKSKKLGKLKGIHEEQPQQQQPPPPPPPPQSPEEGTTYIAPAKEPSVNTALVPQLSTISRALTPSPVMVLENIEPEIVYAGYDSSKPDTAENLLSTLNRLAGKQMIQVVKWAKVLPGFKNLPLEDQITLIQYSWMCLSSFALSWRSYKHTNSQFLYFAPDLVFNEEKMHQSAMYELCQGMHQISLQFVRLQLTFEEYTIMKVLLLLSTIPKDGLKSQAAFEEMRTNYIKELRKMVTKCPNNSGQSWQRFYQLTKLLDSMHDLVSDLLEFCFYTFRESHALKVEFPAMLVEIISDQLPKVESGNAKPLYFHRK
ENDPOINT: Ki (µM)
One number for each entry, in µM.

CC1=CC(C)(C)Nc2ccc3c(c21)C(c1ccccc1)Oc1ccc(Cl)cc1-3 (centres undefined): 1.1

Each compound below has a recorded value; state its Ki.
1. COc1cccc2c1-c1ccc3c(c1C(c1ccccc1)O2)C(C)=CC(C)(C)N3 (stereo in doubt; 10)
2. COc1cccc2c1-c1ccc3c(c1C(c1cccc(OC(=O)N(C)C)c1)O2)C(C)=CC(C)(C)N3 (centres undefined)

Result:
1.68
3.91

###

- TARGET OR TEST SYSTEM: UniProtKB P04150
- ASSAY NOTES: Glucocorticoid-induced aromatase activity in human skin fibroblasts
- Format: functional
ENDPOINT: IC50
Could you write the number and then its unit?

Take a look at these entries with their results.
COc1cccc2c1-c1ccc3c(c1C(c1ccccc1)O2)C(C)=CC(C)(C)N3 (stereo in doubt; 10): 164 nM
COc1cccc2c1-c1ccc3c(c1C(c1cccc(C(F)(F)F)c1)O2)C(C)=CC(C)(C)N3 (stereo not drawn): 105 nM
COc1cccc2c1-c1ccc3c(c1C(c1cc(C)cc(C)c1)O2)C(C)=CC(C)(C)N3 (stereo not drawn): 146 nM
COc1cccc2c1-c1ccc3c(c1C(c1cc(C)cc(Br)c1)O2)C(C)=CC(C)(C)N3 (stereo not drawn): 314 nM
COc1cccc2c1-c1ccc3c(c1C(c1cc(F)cc(F)c1)O2)C(C)=CC(C)(C)N3 (stereo not drawn): 56 nM

Each molecule below has a recorded value; state its IC50.
1. COCOc1cccc(C2Oc3cccc(OC)c3-c3ccc4c(c32)C(C)=CC(C)(C)N4)c1 (stereo not drawn)
2. COc1cccc2c1-c1ccc3c(c1C(c1cccc(OC(=O)N(C)C)c1)O2)C(C)=CC(C)(C)N3 (stereo not drawn)
3. COc1cccc2c1-c1ccc3c(c1C(c1cccc(OCSC)c1)O2)C(C)=CC(C)(C)N3 (stereo not drawn)

Result:
1: 131 nM; 2: 216 nM; 3: 140 nM

###

- TARGET OR TEST SYSTEM: Glucocorticoid receptor (Homo sapiens, UniProt P04150)
- ASSAY NOTES: Repression activity of GR ligand with interleukin-6 receptor in native cell assay using Dexamethasone was determined as maximal potency
- Format: functional
ENDPOINT: IC50
Could you write the number and then its unit?

Take a look at these entries with their results.
COc1cccc2c1-c1ccc3c(c1C(c1cccc(OCSC)c1)O2)C(C)=CC(C)(C)N3 (stereo not drawn): 16 nM
COCOc1cccc(C2Oc3cccc(OC)c3-c3ccc4c(c32)C(C)=CC(C)(C)N4)c1 (stereo not drawn): 49 nM
COc1cccc2c1-c1ccc3c(c1C(c1cc(C)cc(C)c1)O2)C(C)=CC(C)(C)N3 (stereo not drawn): 9.2 nM
COc1cccc2c1-c1ccc3c(c1C(c1cccc(C(F)(F)F)c1)O2)C(C)=CC(C)(C)N3 (stereo not drawn): 32 nM
COc1cccc2c1-c1ccc3c(c1C(c1cc(C)cc(Br)c1)O2)C(C)=CC(C)(C)N3 (stereo not drawn): 12 nM

Each molecule below has a recorded value; state its IC50.
1. COc1cccc2c1-c1ccc3c(c1C(c1cc(F)cc(F)c1)O2)C(C)=CC(C)(C)N3 (stereo not drawn)
2. COc1cccc2c1-c1ccc3c(c1C(c1ccccc1)O2)C(C)=CC(C)(C)N3 (stereo in doubt; 10)
3. COc1cccc2c1-c1ccc3c(c1C(c1cccc(OC(=O)N(C)C)c1)O2)C(C)=CC(C)(C)N3 (stereo not drawn)

Result:
11 nM
51 nM
26 nM
